Measured Potency by item
molecular target: Cytochrome P450 2C9 (Homo sapiens) (UniProt P11712); assay: Cytochrome P450 Family 2 Subfamily C Member 9 (CYP2C9) small molecule antagonists: luciferase reporter qHTS assay (AID 1671198); conditions: P450-Glo CYP2C9 enzyme assay, luciferin luminescence; series mostly up to 115 µM; also: potency is read from the fitted curve at half-maximal effect; nearly all actives have a fitted effect of over 50% in size
Sequence (P11712 whole entry, looked up): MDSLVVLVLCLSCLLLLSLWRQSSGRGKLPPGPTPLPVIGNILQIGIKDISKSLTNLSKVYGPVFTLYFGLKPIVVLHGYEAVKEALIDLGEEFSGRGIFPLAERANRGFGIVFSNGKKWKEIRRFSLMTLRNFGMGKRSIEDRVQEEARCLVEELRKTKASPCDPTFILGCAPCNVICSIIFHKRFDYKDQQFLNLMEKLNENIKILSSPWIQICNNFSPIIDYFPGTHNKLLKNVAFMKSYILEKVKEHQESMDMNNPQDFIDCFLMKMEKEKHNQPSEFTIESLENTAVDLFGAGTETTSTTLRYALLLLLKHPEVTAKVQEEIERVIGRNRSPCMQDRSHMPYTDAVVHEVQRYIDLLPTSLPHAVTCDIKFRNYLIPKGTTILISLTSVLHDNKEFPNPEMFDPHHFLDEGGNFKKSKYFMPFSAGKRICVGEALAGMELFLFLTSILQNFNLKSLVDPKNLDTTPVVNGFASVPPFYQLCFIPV
Inconclusive results are not listed. Calls of active or inactive are those of the source. Calls follow the shape of the dose curve; as a rule, active = well fitted inhibition curve with a large enough effect in the repeat runs; inconclusive = weak or mixed curves; inactive = no such curve, though single readings can be large or run the other way.
Measured attribute: Potency

[[record]]
compound = "CC(c1ccccc1)(c1ccc(O)cc1)c1ccc(O)cc1"
result = "8.94 µM (active)"

[[record]]
compound = "Cc1cc(C(C)(C)c2ccc(O)c(C)c2)ccc1O"
result = "5.37 µM (active)"

[[record]]
compound = "OC(Cc1ccccc1Cl)(Cn1[nH]cnc1=S)C1(Cl)CC1 (stereo unspecified)"
result = "0.894 µM (active)"

[[record]]
compound = "O=S(=O)(C(Cl)(Cl)Cl)C(Cl)(Cl)Cl"
result = "11.2 µM (active)"

[[record]]
compound = "Cc1cc(C)c(C(=O)P(=O)(c2ccccc2)c2ccccc2)c(C)c1"
result = "15.9 µM (active)"

[[record]]
compound = "CN1CSC(=S)N(C)C1"
result = "8.91 µM (active)"


###

target: Androgen receptor (Homo sapiens); assay: qHTS assay to identify small molecule antagonists of the androgen receptor (AR) signaling pathway using the MDA cell line (AID 743042; also: nearly all actives have a fitted effect of over 55% in size; also: potency is read from the fitted curve at half-maximal effect); conditions: MDA-kb2 AR-luc, MMTV luciferase, R1881 antagonist, 16 h; series mostly up to 70.3 µM
Records with an inconclusive call do not appear. The source made the active and inactive calls. Calls follow the shape of the dose curve; as a rule, active = well fitted inhibition curve with a large enough effect in the repeat runs; inconclusive = weak or mixed curves, or effect the other way; inactive = no such curve, though single readings can be large or run the other way.
Measured attribute: Potency

[[record]]
compound = "OC(c1ccccc1)(c1ccccc1)C1CN2CCC1CC2 (stereo not given)"
result = "inactive"

[[record]]
compound = "CCC(=O)O[C@]1(c2ccccc2)CCN(C)C[C@H]1C"
result = "inactive"

[[record]]
compound = "C[N+]1(C)[C@@H]2CC[C@H]1CC(OC(=O)c1c[nH]c3ccccc13)C2 (stereo not given in full)"
result = "inactive"

[[record]]
compound = "C[C@@H](CO)NC(=O)[C@@H]1C=C2c3cccc4[nH]cc(c34)C[C@H]2N(C)C1"
result = "inactive"

[[record]]
compound = "C/C(=C\\c1csc(C)n1)[C@@H]1C[C@@H]2O[C@]2(C)CCC[C@H](C)[C@H](O)[C@@H](C)C(=O)C(C)(C)[C@@H](O)CC(=O)O1"
result = "inactive"

[[record]]
compound = "Oc1cccc[c]1[Hg][Cl]"
result = "4.22 µM (active)"

[[record]]
compound = "C[C@]12CC[C@H]3[C@@H](CCC4=C(Cl)C(=O)CC[C@@]43C)[C@@H]1CC[C@@H]2O"
result = "inactive"

[[record]]
compound = "O=C1CCO1"
result = "inactive"

[[record]]
compound = "CCCSc1cc(OC)c(CCN)cc1OC"
result = "inactive"

[[record]]
compound = "C=CCN1CC[C@]23c4c5ccc(O)c4O[C@H]2[C@@H](O)C=C[C@H]3[C@H]1C5"
result = "inactive"


###

target: Acetylcholinesterase (Homo sapiens) (UniProt P22303); experiment: Acetylcholinesterase (AChE) small molecule antagonists: fluorescence cell-based qHTS assay (AID 1347398); conditions: SH-SY5Y cells; AChE activity; series mostly up to 115 µM; also: nearly all actives have a fitted effect of over 50% in size
Sequence (P22303 whole entry, looked up): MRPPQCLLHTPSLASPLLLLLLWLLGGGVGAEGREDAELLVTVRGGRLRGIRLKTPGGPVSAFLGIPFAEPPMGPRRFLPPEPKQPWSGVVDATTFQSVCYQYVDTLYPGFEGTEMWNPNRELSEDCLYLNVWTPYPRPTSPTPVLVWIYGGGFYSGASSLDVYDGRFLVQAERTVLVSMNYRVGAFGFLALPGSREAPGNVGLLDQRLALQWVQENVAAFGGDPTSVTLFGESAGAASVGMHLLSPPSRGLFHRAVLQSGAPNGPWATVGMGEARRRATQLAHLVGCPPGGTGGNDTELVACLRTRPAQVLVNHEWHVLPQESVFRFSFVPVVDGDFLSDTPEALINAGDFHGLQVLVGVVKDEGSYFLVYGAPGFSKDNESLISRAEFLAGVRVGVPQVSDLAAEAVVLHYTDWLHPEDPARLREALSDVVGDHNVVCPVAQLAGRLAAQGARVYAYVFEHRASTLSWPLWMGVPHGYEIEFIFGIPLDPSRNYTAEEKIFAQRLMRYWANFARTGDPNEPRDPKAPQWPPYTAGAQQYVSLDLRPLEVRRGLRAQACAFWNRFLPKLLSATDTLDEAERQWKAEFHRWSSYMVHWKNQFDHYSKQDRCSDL
Inconclusive results are not listed. Activity calls are given as the source filed them. Calls come from the whole dose curve.
Measured attribute: outcome

[[record]]
smi = "CCCCOCCOCCOC(=O)CCCCC(=O)OCCOCCOCCCC"
result = "inactive"

[[record]]
smi = "CC(C)(C)[C@@H](O)[C@@H](Cc1ccc(Cl)cc1)n1cncn1"
result = "inactive"

[[record]]
smi = "OC[C@H]1O[C@@H]2O[C@H]3[C@H](O)[C@@H](O)[C@@H](O[C@H]4[C@H](O)[C@@H](O)[C@@H](O[C@H]5[C@H](O)[C@@H](O)[C@@H](O[C@H]6[C@H](O)[C@@H](O)[C@@H](O[C@H]7[C@H](O)[C@@H](O)[C@@H](O[C@H]1[C@H](O)[C@H]2O)O[C@@H]7CO)O[C@@H]6CO)O[C@@H]5CO)O[C@@H]4CO)O[C@@H]3CO"
result = "inactive"


###

test: A CellTox Green Cytotoxicity Assay to monitor cytotoxicity in HepG2 cells - 8 hour (AID 1224890); conditions: CellTox Green fluorescence; series mostly up to 76.8 µM; also: nearly all actives have a fitted effect of over 45% in size
Records with an inconclusive call do not appear. Activity calls are given as the source filed them. Calls come from the whole dose curve; as a rule, active = well fitted activation curve with a large enough effect in the repeat runs; inconclusive = weak or mixed curves; inactive = flat fitted curve, though single readings scatter.
Outcomes: TRUE = active, FALSE = inactive

[[record]]
compound = "O=C(Nc1ccccc1-c1ccc(Cl)cc1)c1cccnc1Cl"
category = "TRUE"

[[record]]
compound = "O=S(=O)(C(Cl)(Cl)Cl)C(Cl)(Cl)Cl"
category = "TRUE"

[[record]]
compound = "Nc1ccc([N+](=O)[O-])cc1"
category = "TRUE"

[[record]]
compound = "C[C@]12CC[C@@H](O)C[C@@H]1CC[C@@H]1[C@@H]2CC[C@]2(C)C(=O)CC[C@@H]12"
category = "FALSE"

[[record]]
compound = "CCN(CC)C(=O)Cl"
category = "FALSE"

[[record]]
compound = "Cc1cc(C)c(C(=O)P(=O)(c2ccccc2)c2ccccc2)c(C)c1"
category = "FALSE"

[[record]]
compound = "CNC(=O)Oc1cc(C)c(SC)c(C)c1"
category = "FALSE"

[[record]]
compound = "Oc1c(I)cc(I)cc1I"
category = "FALSE"

[[record]]
compound = "CN1CSC(=S)N(C)C1"
category = "FALSE"

[[record]]
compound = "Cc1nnc2n1-c1sc(CCc3ccc(CC(C)C)cc3)cc1C(c1ccccc1Cl)=NC2C (configuration not stated)"
category = "FALSE"

[[record]]
compound = "CO/C=C(/C(=O)OC)c1ccccc1Oc1cc(Oc2ccccc2C#N)ncn1"
category = "FALSE"

[[record]]
compound = "CC1COC(Cn2cncn2)(c2ccc(Oc3ccc(Cl)cc3)cc2Cl)O1 (configuration not stated)"
category = "FALSE"


###

target: Acetylcholinesterase (Homo sapiens) (UniProt P22303); assay: Acetylcholinesterase (AChE) small molecule antagonists: enzyme-based qHTS assay (AID 1347397); conditions: AChE enzyme activity inhibition; series mostly up to 115 µM; also: nearly all actives have a fitted effect of over 55% in size
Activity calls are given as the source filed them. Calls come from the whole dose curve.
Possible outcomes: active, inactive

[[record]]
compound = "CCCCCCCCCCCCCC[N+](C)(C)Cc1ccccc1"
category = "active"

[[record]]
compound = "O=C1OC2(c3ccccc31)c1cc(Br)c(O)c(Br)c1Oc1c2cc(Br)c(O)c1Br"
category = "inactive"

[[record]]
compound = "CC(=O)/C=C/c1ccco1"
category = "inactive"

[[record]]
compound = "Cc1ccc2ccccc2n1"
category = "inactive"

[[record]]
compound = "O=c1c(-c2ccc(O)cc2)coc2cc(O)ccc12"
category = "inactive"

[[record]]
compound = "CCCCCOC(=O)CCC"
category = "inactive"

[[record]]
compound = "O=C(Cl)c1cccc(C(=O)Cl)c1"
category = "inactive"

[[record]]
compound = "Oc1ccc(Oc2ccccc2)cc1"
category = "inactive"

[[record]]
compound = "CCCCCCCCCC/C=C/C#N"
category = "inactive"

[[record]]
compound = "CCC1COC(=O)O1 (stereo not drawn)"
category = "inactive"

[[record]]
compound = "OCCCCl"
category = "inactive"

[[record]]
compound = "CCCCCCCC/C=C\\CCCCCCCC(=O)OCCOC(=O)CCCCCCC/C=C\\CCCCCCCC"
category = "inactive"

[[record]]
compound = "CC/C=C(\\C(=O)N[C@@H]1C(=O)N2C(C(=O)OCOC(=O)C(C)(C)C)=C(COC(N)=O)CS[C@H]12)c1csc(N)n1"
category = "inactive"

[[record]]
compound = "CC1(C)C(=O)N(Cl)C(=O)N1Cl"
category = "inactive"

[[record]]
compound = "CC(C)CC(=O)O"
category = "inactive"

[[record]]
compound = "O=C1NC2NC(=O)NC2N1 (stereo not drawn)"
category = "inactive"

[[record]]
compound = "N[C@@H](Cc1cc(I)c(Oc2cc(I)c(O)c(I)c2)c(I)c1)C(=O)O"
category = "inactive"

[[record]]
compound = "CC(CC(C#N)(c1ccccc1)C(C)C)N(C)C (stereo not drawn)"
category = "inactive"

[[record]]
compound = "CN1CCC[C@@H]1Cc1c[nH]c2ccc(CCS(=O)(=O)c3ccccc3)cc12"
category = "inactive"

[[record]]
compound = "OCCOCCOCCOCCO"
category = "inactive"

[[record]]
compound = "Cc1ccc(C(=O)c2ccc(CC(=O)O)n2C)cc1"
category = "inactive"

[[record]]
compound = "Oc1ccc(Cl)cc1Sc1cc(Cl)ccc1O"
category = "inactive"

[[record]]
compound = "O=C(CN1CCNCC1)NC1CCCCC1"
category = "inactive"

[[record]]
compound = "CCCCN(CCCC)C(=O)N(CCCC)CCCC"
category = "inactive"

[[record]]
compound = "Clc1ccc2cc3ccccc3cc2c1"
category = "inactive"

[[record]]
compound = "Cn1c(N)nc2nc[nH]c2c1=O"
category = "inactive"

[[record]]
compound = "Nc1ccccc1[N+](=O)[O-]"
category = "inactive"

[[record]]
compound = "Cc1ccccc1C(=O)Nc1ccc(C(=O)N2CCCC(N(C)C)c3ccccc32)cc1 (stereo not drawn)"
category = "inactive"

